// provenance: ChEMBL document CHEMBL4513216

Assignment: determine reported cytotoxicity at 10 µM for the given molecules.
experiment: Toxicity liver stage against HepG2, at 10uM; type: cell-based; design: test concentration 10 uM, cell line HepG2-A16-CD81EGFP; conditions: human, HepG2-A16-CD81EGFP cells; read-out: INHIBITION
One number for each entry, in %.

Past entries and their recorded results:
{"columns": ["molecule", "display unit", "measured value"],
 "data": [
  ["CC1CN(CC(=O)Nc2nncs2)CCN1c1nccs1 (centres undefined)", "%", -15.7],
  ["COCC(=O)N1Cc2cn(C)nc2C(COc2cccnc2)C1 (centres undefined)", "%", -11],
  ["CCCN1C[C@@H]2CC[C@H]1CN(C(=O)Cc1c(C)[nH]c(CC)nc1=O)C2", "%", -0.529]
]}

For each of the items listed, what is its cytotoxicity at 10 µM?
1. CCN1CCn2c(C)cnc2C12CCN(C(=O)c1ccco1)CC2
2. CCNC(=O)c1cnc(Cc2ccc(F)cc2)s1
3. Cc1cc2n(n1)CC(CNC1CCN(c3ccc(F)cc3)CC1)CN2 (centres undefined)
4. O=C1CCC2(CCN(c3ncc(F)cn3)CC2)N1CCN1CCCC1
5. CCN1CCc2c(CNC(=O)c3nccn3C)cncc2C1
6. O=C(c1ccco1)N1CC[C@@H]2O[C@H](COCC3CCOCC3)CC[C@@H]21
7. CN1CCCN(C(=O)NCCNc2ncccn2)CC1
8. CCOc1cccc(COC(=O)c2cc(C)on2)n1

## Result
[4.56, 4.44, -10.3, 10.5, -109, 6.8, -16.7, -5.08]

// input: 4 molecules below; output: cytotoxicity at 10 µM for each
1. Cc1cc(C)n(-c2ccc(CNCc3ccc(F)c(F)c3)cn2)n1
2. COc1cccc(CN2CC(O)CN(C(=O)C3CC3)CC2=O)c1OC (centres undefined)
3. Cc1occc1C(=O)N1CCC2(CCN(Cc3nccs3)CC2)C1
4. CCCN(Cc1cnc2ccccc2n1)Cc1ccccc1OC

## Result
1: -8.77; 2: -11.3; 3: -5.33; 4: -40.1

# batch size: 5; output cytotoxicity at 10 µM per entry
1. Cc1cc(C2CCN(S(=O)(=O)c3cn(C)cn3)CC2)ccn1
2. CCc1nc(NC2CCN(CC(=O)NC3CC3)CC2)c2cnn(C)c2n1
3. CCc1nc(CN2CCCN(Cc3noc(C4CC4)n3)CC2)cs1
4. N#Cc1ccc(OCC(O)CN2CCC(Cn3cccn3)CC2)cc1 (centres undefined)
5. Cc1[nH]c2ccc(C#N)cc2c1CCNc1ncnc2c1CCNCC2

## Result
1. -32.6
2. 4.99
3. -7.35
4. -0.775
5. -11.2

Provide cytotoxicity at 10 µM values for the following items, in order.
1. O=C(NCC1CC1)Nc1cnc2cc(Cl)ccc2c1O
2. c1cnc(NCc2n[nH]c3c2CCN(Cc2cccnc2)C3)nc1
3. CCn1cnnc1CNS(=O)(=O)N1CCCC1c1ccco1 (centres undefined)
4. Cc1ccc(CN(C)C(=O)CN2CCCC2Cn2cccn2)o1 (centres undefined)
5. Cc1cc2c(cc1C(=O)N1CC[C@H](CO)[C@@H](O)C1)OCCO2
6. Cn1cccc1C(=O)NC[C@H]1C[C@@H]2CN(C(=O)c3ccco3)C[C@@H]2O1

## Result
1: -0.0788; 2: -7.15; 3: -141; 4: -10.4; 5: -10.8; 6: -105
